biological target: Tyrosine-protein kinase Lck (Homo sapiens) (UniProt P06239); assay: Compound was tested for its antagonistic activity at 100 uM concentration against SH2 domain of LCK protein.; type: functional
Sequence (P06239 2-509 limits assumed): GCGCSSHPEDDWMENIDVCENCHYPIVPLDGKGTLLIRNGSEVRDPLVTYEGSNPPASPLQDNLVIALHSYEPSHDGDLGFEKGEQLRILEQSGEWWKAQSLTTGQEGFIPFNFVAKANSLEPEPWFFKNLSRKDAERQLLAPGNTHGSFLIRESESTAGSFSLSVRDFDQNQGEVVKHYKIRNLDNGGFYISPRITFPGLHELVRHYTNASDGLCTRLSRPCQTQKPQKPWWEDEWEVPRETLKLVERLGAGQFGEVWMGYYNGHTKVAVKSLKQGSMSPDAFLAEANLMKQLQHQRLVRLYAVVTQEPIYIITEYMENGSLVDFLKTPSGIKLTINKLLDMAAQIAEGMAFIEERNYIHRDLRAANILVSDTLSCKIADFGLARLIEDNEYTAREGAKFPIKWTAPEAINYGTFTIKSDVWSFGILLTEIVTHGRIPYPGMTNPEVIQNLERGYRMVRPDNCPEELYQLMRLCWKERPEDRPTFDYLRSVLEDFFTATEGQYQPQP
Where a SMILES comes first, the peptide text is derived from it. [ ]: non-standard residue; d: D form. The star is where a group is joined. Gly(N-Bn(4-CH2PO3H2)) = O=C(O)CNCc1ccc(CP(=O)(O)O)cc1; N(3-phenylpropyl)Gly = O=C(O)CNCCCc1ccccc1; Hexanoyl = CCCCCC(=O)*; Nleu = CC(C)CNCC(=O)O; NEtG = CCNCC(=O)O
measure: inhibition (%)
Lab book: enter the figure in %, no units written.

[
  {
    "molecule": "CCCCCC(=O)N(CC(=O)N(CC)CC(=O)N(CC(=O)N(CC)CC(N)=O)CC(C)C)Cc1ccc(CP(=O)(O)O)cc1 (Hexanoyl-[Gly(N-Bn(4-CH2PO3H2))][NEtG][Nleu][NEtG]-NH2)",
    "systemTested": "Tyrosine-protein kinase Lck (Homo sapiens) (UniProt P06239)",
    "inhibition / %": 0
  },
  {
    "molecule": "CCCCCC(=O)N(CC(=O)N(CC(=O)N(CCCc1ccccc1)CC(=O)N(CCCc1ccccc1)CC(N)=O)CC(C)C)Cc1ccc(CP(=O)(O)O)cc1 (Hexanoyl-[Gly(N-Bn(4-CH2PO3H2))][Nleu][N(3-phenylpropyl)Gly][N(3-phenylpropyl)Gly]-NH2)",
    "systemTested": "Tyrosine-protein kinase Lck (Homo sapiens) (UniProt P06239)",
    "inhibition / %": 3
  },
  {
    "molecule": "CCCCCC(=O)N(CC(=O)N(CC)CC(=O)N(CC)CC(=O)N(CC)CC(N)=O)Cc1ccc(CP(=O)(O)O)cc1 (Hexanoyl-[Gly(N-Bn(4-CH2PO3H2))][NEtG][NEtG][NEtG]-NH2)",
    "systemTested": "Tyrosine-protein kinase Lck (Homo sapiens) (UniProt P06239)",
    "inhibition / %": 4
  },
  {
    "molecule": "CCCCCC(=O)N(CC(=O)N(CC)CC(=O)N(CC)CC(=O)N(CC(N)=O)CC(C)C)Cc1ccc(CP(=O)(O)O)cc1 (Hexanoyl-[Gly(N-Bn(4-CH2PO3H2))][NEtG][NEtG][Nleu]-NH2)",
    "systemTested": "Tyrosine-protein kinase Lck (Homo sapiens) (UniProt P06239)",
    "inhibition / %": 2
  }
]

Then there is this molecule:
Find the measured inhibition of CCCCCC(=O)N(CC(=O)N(CCCc1ccccc1)CC(=O)N(CC)CC(=O)N(CCCc1ccccc1)CC(N)=O)Cc1ccc(CP(=O)(O)O)cc1 (Hexanoyl-[Gly(N-Bn(4-CH2PO3H2))][N(3-phenylpropyl)Gly][NEtG][N(3-phenylpropyl)Gly]-NH2) and report it.
4
